Source: patent US10710994B2

- experimental target: human TRPA1 channel (Homo sapiens (Human), UniProt O75762)
- Sequence (O75762 whole entry): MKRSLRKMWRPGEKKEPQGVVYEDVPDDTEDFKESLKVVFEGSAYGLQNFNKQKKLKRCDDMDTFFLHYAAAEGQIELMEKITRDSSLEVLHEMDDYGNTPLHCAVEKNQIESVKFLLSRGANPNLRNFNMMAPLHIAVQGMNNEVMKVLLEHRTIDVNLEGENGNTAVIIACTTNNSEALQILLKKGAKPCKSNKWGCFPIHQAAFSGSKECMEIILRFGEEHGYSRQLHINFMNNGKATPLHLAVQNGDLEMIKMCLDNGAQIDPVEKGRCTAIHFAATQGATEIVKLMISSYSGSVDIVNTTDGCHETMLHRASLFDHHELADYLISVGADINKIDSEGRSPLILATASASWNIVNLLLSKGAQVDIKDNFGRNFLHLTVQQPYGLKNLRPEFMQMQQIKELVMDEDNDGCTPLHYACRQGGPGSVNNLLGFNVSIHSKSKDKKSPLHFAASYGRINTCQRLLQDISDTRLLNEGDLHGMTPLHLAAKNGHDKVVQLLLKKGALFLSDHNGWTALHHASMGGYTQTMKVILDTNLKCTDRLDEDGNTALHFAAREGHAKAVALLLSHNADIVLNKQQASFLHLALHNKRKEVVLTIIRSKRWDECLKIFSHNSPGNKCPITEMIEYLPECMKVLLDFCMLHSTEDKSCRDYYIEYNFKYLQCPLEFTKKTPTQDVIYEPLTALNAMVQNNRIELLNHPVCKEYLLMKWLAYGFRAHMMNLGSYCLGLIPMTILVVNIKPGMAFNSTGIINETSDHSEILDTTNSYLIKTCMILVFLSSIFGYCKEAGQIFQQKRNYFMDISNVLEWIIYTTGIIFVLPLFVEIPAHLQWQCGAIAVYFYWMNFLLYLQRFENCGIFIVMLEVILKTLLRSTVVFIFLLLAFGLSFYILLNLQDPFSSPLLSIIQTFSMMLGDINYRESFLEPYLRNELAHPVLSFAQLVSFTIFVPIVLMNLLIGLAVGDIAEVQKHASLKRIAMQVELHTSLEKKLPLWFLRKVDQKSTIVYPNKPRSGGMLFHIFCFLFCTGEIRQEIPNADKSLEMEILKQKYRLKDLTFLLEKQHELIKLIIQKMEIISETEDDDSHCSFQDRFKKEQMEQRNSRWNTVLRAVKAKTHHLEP
- protocol details: hTRPA1 CHO Ca2+ FLIPR Tetra assay: block of cinnamaldehyde induced calcium influx
- Format: cell-based
- protocol conditions: read-out: hTRPA1 IC50 10 min; CHO cells expressing TRPA1; 10 minutes incubation with compound before cinnamaldehyde (about EC80); Hill coefficient fixed to 1.5
pIC50: −log10 of the molar value.
Outcome: fulfilled for pIC50 of at least 8; not fulfilled for anything lower.

Example entries begin here.
1) Cn1cnc2c(C#N)nn(Cc3nc([C@@H]4CO[C@@H](c5ccc(Cl)cc5)C4)no3)c2c1=O	not fulfilled
2) Cn1cnc2nc(N)n(Cc3nc([C@@H]4CO[C@@H](c5ccc(C(F)(F)F)cc5)C4)no3)c(=O)c21	not fulfilled
3) Cc1nc2ncn(C)c2c(=O)n1Cc1nc([C@@H]2CO[C@@H](c3ccc(F)cc3)C2)no1	not fulfilled

// next entry
Check this molecule for pIC50 at or above 8: Cc1cncc2ncn(Cc3nc([C@@H]4CO[C@@H](c5ccc(Cl)cc5)C4)no3)c(=O)c12
fulfilled
